EXPERIMENTAL SYSTEM: COX-2 (Ovis aries)
Sequence (P79208 17-603): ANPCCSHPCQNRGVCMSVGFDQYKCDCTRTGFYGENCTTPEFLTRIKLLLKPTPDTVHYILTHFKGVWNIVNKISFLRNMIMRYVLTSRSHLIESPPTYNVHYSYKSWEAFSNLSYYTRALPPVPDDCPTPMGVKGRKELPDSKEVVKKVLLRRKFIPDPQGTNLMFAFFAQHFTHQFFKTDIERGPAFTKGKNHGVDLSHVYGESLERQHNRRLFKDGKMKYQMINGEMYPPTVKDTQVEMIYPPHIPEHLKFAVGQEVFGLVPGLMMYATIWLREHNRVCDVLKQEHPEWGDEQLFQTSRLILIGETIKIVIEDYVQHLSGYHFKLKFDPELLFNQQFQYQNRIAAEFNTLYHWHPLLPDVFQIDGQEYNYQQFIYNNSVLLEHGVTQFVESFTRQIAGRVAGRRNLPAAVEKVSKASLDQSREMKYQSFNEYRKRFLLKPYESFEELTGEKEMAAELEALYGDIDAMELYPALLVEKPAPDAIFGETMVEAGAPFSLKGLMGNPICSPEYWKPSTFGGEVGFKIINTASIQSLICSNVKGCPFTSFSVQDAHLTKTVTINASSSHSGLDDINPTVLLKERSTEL
ASSAY OVERVIEW: COX-2-catalyzed prostaglandin production inhibition
CONDITION DETAILS: mean ± standard deviation, three replicas
RECORDED ENDPOINT: pIC50
Kindly note that pIC50 refers to -log10 of the concentration in mol/L and answer with the value alone.

Consider the compound `Cc1ccc(C(C)C)c(O)c1` and give its measured pIC50. 3.75

Hello, the source for this data is paper PMC11355195, in case you need it.
